- ASSAY: Oral bioavailability in rat at 5 mg/kg
- Format: ADME, organism-based
- CONDITION NOTES: in vivo
bioavailability reference
Give the quantity in %, number only.

See these solved cases before continuing.
C[C@@H]1CCCN1CCCOc1ccc(-c2ccc(=O)n(Cc3ccccc3)c2)cc1 : 0
C[C@@H]1CCCN1CCCOc1ccc(-c2ccc(=O)n(C)c2)cc1 : 11
C[C@@H]1CCCN1CCCOc1ccc(-c2ccc(=O)[nH]c2)cc1 : 0
C[C@@H]1CCCN1CCCOc1ccc(-c2cn(C)c(=O)c3ccccc23)cc1 : 8

Could you now consider this next compound?
input: Suppose we examine the compound C[C@@H]1CCCN1CCCOc1ccc(-c2ccc(=O)n(-c3ccccc3)c2)cc1 ; what bioavailability value has been reported?
output: 17
